Origin of the recorded values: patent US12383556B2

Assay: First-in-human Part 2 multiple ascending dose q.d. blood and urine PK
Format: in vivo
Details: human, blood, oral, 10 mg, 10 mg qd, Day 1, blood; Median (Min-Max); read-out: AUC0-24
Readout type: AUC(0-t)
Don't forget the unit after the value.

What does the record list as AUC(0-t) for C=CC(=O)N(C)CCOc1c(N)ncnc1-c1cc(F)cc(NC(=O)c2ccc(C3CC3)cc2F)c1C ? 4.94 ng·h/mL

----------
Test: First-in-human Part 2 multiple ascending dose q.d. blood and urine PK
Type: in vivo
Conditions: human, whole blood, oral, 100 mg, 100 mg qd, Day 12, blood; Median (Min-Max); read-out: AUC0-24
Readout type: AUC(0-t) (ng·h/mL)
Reply with just the number (in ng·h/mL).

What does the record list as AUC(0-t) for C=CC(=O)N(C)CCOc1c(N)ncnc1-c1cc(F)cc(NC(=O)c2ccc(C3CC3)cc2F)c1C [Compound of Formula (I)] ? 429
